biological target: human factor B (purified, Complement Technology A135) (human, UniProt P00751 26-764); experiment: cell-based or functional assay
Sequence (P00751 26-764): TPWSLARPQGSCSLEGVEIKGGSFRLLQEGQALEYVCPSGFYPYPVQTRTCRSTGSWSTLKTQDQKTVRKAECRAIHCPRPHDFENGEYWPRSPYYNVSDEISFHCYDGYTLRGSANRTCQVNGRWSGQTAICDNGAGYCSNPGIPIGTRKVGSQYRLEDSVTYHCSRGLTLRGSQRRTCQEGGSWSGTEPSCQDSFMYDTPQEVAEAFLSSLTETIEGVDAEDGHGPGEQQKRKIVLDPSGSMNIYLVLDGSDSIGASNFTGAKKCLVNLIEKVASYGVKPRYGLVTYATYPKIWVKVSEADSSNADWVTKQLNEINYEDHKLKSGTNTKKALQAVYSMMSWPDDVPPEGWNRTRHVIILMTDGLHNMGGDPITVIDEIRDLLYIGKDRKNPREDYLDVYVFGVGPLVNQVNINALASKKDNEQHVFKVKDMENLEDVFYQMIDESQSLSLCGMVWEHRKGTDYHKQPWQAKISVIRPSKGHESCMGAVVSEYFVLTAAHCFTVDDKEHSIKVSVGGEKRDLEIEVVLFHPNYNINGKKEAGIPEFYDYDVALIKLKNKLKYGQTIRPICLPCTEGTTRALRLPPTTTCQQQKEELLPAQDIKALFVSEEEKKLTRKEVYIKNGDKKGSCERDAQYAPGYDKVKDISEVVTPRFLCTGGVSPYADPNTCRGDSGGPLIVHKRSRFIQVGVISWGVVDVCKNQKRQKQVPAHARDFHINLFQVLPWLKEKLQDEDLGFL
readout_name: IC50 (read off the curve); lysis of rabbit red blood cells in 10% normal human serum

binder	reported_value
CLS012 (TA106-derivative N31Q variant, full-length IgG2/4 mAb, expressed in CHO cells) (antibody, V domains shown, N-linked glycans on the heavy chain constant region, Human IgG2/4 full-length mAb; also called CLS012 mAb; TA106 variant N31Q) VH: EVQLVQSGAEVKKPGASVKVSCKASGYSFTDYYMTWVRQAPGQGLEWMGWINPNSGGTKYAQKFQGRVTMTRDTSISTAYMELSRLRSDDTAVYYCARGYYANSAWFAYWGQGTLVTVSS VL: DIVMTQSPDSLAVSLGERATINCKSSQSLLQSSTSKNYLAWYQQKPGQPPKLLIYWASTRESGVPDRFSGSGSGTDFTLTISSLQAEDVAVYYCKQVYNLPWTFGQGTKLEIKR	~20 nM
CLS011 (TA106-derivative full-length IgG2/4 mAb, wild type light chain, expressed in CHO cells) (antibody, V domains shown, N-linked glycans on the N31-S32-S33 motif of CDR1; N-linked glycans on the heavy chain (possibly at N296), Human IgG2/4 full-length mAb; also called CLS011 mAb; TA106-derivative mAb) VH: EVQLVQSGAEVKKPGASVKVSCKASGYSFTDYYMTWVRQAPGQGLEWMGWINPNSGGTKYAQKFQGRVTMTRDTSISTAYMELSRLRSDDTAVYYCARGYYANSAWFAYWGQGTLVTVSS VL: DIVMTQSPDSLAVSLGERATINCKSSQSLLNSSTSKNYLAWYQQKPGQPPKLLIYWASTRESGVPDRFSGSGSGTDFTLTISSLQAEDVAVYYCKQVYNLPWTFGQGTKLEIKR	~50 nM
TA106 Fab (humaneered anti-factor B Fab, expressed in E. coli) (Fab, V domains shown, Fab made in E. coli by Xoma, not glycosylated; also called Fab TA106; TA106 wild type Fab) VH: QVQLVQSGAEVKKPGASVKVSCKASGYSFTDYYMTWVRQAPGQGLEWMGWINPNSGGTKYAQKFQGRVTMTRDTSISTAYMELSRLRSDDTAVYYCARGYYANSAWFAYWGQGTLVTVSS VL: DIVMTQSPDSLAVSLGERATINCKSSQSLLNSSTSKNYLAWYQQKPGQPPKLLIYWASTRESGVPDRFSGSGSGTDFTLTISSLQAEDVAVYYCKQVYNLPWTFGQGTKLEIKR	~80 nM
CLS013 (TA106-derivative S33A variant, full-length IgG2/4 mAb, expressed in CHO cells) (antibody, V domains shown, N-linked glycans on the heavy chain, Human IgG2/4 full-length mAb; also called CLS013 mAb; TA106 variant S33A) VH: EVQLVQSGAEVKKPGASVKVSCKASGYSFTDYYMTWVRQAPGQGLEWMGWINPNSGGTKYAQKFQGRVTMTRDTSISTAYMELSRLRSDDTAVYYCARGYYANSAWFAYWGQGTLVTVSS VL: DIVMTQSPDSLAVSLGERATINCKSSQSLLNSATSKNYLAWYQQKPGQPPKLLIYWASTRESGVPDRFSGSGSGTDFTLTISSLQAEDVAVYYCKQVYNLPWTFGQGTKLEIKR	~20 nM
